Source: PubChem BioAssay (NCI)

tested on: PC-3 prostate; assay: NCI tumour cell line growth inhibition, 48 h
Reported endpoint: GI50

In [3]: df
Out[3]:
                                   compound  reported_endpoint   result
0  Cc1ccc(C(=O)Nc2ccc(CN3CCN(C)CC3)c(C(F)(F)F)c2)cc1C#Cc1cncc2ncccc12               GI50  3.15 µM

Hi, could you look up GI50 for each item in my list?
1. COC(=O)C1CC2(c3ccc(C)cc3)C(c3ccc(C)cc3)=C(c3ccc(C)cc3)C1(c1ccc(C)cc1)S2=O (centres undefined)
2. CCN(CC)c1ccc(/C=C/C(=O)c2cccc(NS(C)(=O)=O)c2)cc1
3. Cc1c(N2C(=O)/C(=C\c3ccc(O)cc3)N=C2c2ccccc2)c(=O)n(-c2ccccc2)n1C
4. Cn1cc(-c2csc(-c3cn(CCN4CCOCC4)c4ccc(F)cc34)n2)c2cccnc21
5. Nc1c(C(=O)Nc2cccc3ccccc23)sc2nc3c(cc12)CCCC3
6. Cc1cc(N(CCCNc2ccnc3cc(Cl)ccc23)Cc2cccs2)nc(Cl)n1
7. COc1cc(C(=O)/C=C/c2c(-c3ccc(F)cc3)nc3sccn23)cc(OC)c1OC

> 100 µM
6.35 µM
> 100 µM
2.14 µM
1.8 µM
3.32 µM
3.57 µM
